Let's look at some sequences and their measured background-corrected fluorescence.
assayMethodText: background-corrected fluorescence of 3'-dye-labeled ssDNA relative to brightest sequence (3'-GCGCG) (fraction); higher = brighter dye fluorescence (less quenching)
condition: dye: Cy5 (3' terminal)

Reference set (4 entries):
TTTTTTGCTGATGCGCATGCTTTTTTTTTTTTTTTACATA [ATACA]
0.403
TTTTTTCATGATGCTCATGATTTTTTTTTTTTTTTGCAGC [CGACG]
0.402
TTTTTTGATGCGCATCATGATTTTTTTTTTTTTTTCATGC [CGTAC]
0.395
TTTTTTGCGCATGATGCTGCTTTTTTTTTTTTTTTATCAA [AACTA]
0.411

Attention now turns to another entry.
background-corrected fluorescence for TTTTTTCAGCATGATGCTCATTTTTTTTTTTTTTTGTCAG [GACTG] is 0.404

* * *

assayMethodText: background-corrected fluorescence of 3'-dye-labeled ssDNA relative to brightest sequence (3'-GCGCG) (fraction); higher = brighter dye fluorescence (less quenching)
condition: dye: Cy3 (3' terminal)
Let's look at some sequences and their measured background-corrected fluorescence.
Give a plain numeric answer without units written out.

Reference set (3 entries):
TTTTTTGATGCTGATGATCATTTTTTTTTTTTTTTCACCG [GCCAC]
0.505
TTTTTTCATGATGCTCATGATTTTTTTTTTTTTTTGCAGC [CGACG]
0.508
TTTTTTGCGCATGCTGATGCTTTTTTTTTTTTTTTATACA [ACATA]
0.492

Attention now turns to another entry.
background-corrected fluorescence for TTTTTTGATGAGCAGCAGCATTTTTTTTTTTTTTTCCTTT is 0.492

* * *

Let's look at some sequences and their measured background-corrected fluorescence.
assayMethodText: background-corrected fluorescence of 3'-dye-labeled ssDNA relative to brightest sequence (3'-GCGCG) (fraction); higher = brighter dye fluorescence (less quenching)
condition: dye: Cy5 (3' terminal)
Give a plain numeric answer without units written out.

TTTTTTGATGATGATGATGCTTTTTTTTTTTTTTTCCCCA [ACCCC]
0.352
TTTTTGCATCATCATCAGCATTTTTTTTTTTTTTTTGGGT
0.586
TTTTTTCATGATGATCATCATTTTTTTTTTTTTTTGCCGG [GGCCG]
0.564
TTTTTTGCTGAGCATCATCATTTTTTTTTTTTTTTACTGG [GGTCA]
0.481
TTTTTTGCTGATCAGCATGATTTTTTTTTTTTTTTACGTC [CTGCA]
0.373
TTTTTTGATGCTGATGATCATTTTTTTTTTTTTTTCACCG [GCCAC]
0.423

background-corrected fluorescence for TTTTTTGCTGCTCAGCATCATTTTTTTTTTTTTTTAAGTG [GTGAA] is 0.457

background-corrected fluorescence for TTTTTTGCTGATGATGATGATTTTTTTTTTTTTTTACCCC [CCCCA] is 0.271

* * *

assayMethodText: background-corrected fluorescence of 3'-dye-labeled ssDNA relative to brightest sequence (3'-GCGCG) (fraction); higher = brighter dye fluorescence (less quenching)
condition: dye: Cy3 (3' terminal)
Let's look at some sequences and their measured background-corrected fluorescence.
Give a plain numeric answer without units written out.

TTTTTGCAGCATGCTCATGATTTTTTTTTTTTTTTTTAGC [CGATT]
0.506

background-corrected fluorescence for TTTTTTCATGATGAGCATGCTTTTTTTTTTTTTTTGCCTA [ATCCG] is 0.493

background-corrected fluorescence for TTTTTGCATGATGCTCATGATTTTTTTTTTTTTTTTCAGC [CGACT] is 0.492

* * *

Let's look at some sequences and their measured background-corrected fluorescence.
assayMethodText: background-corrected fluorescence of 3'-dye-labeled ssDNA relative to brightest sequence (3'-GCGCG) (fraction); higher = brighter dye fluorescence (less quenching)
condition: dye: Cy3 (3' terminal)

TTTTTTGCTGATGATGCTGCTTTTTTTTTTTTTTTACCAA [AACCA]
0.485
TTTTTGCATGATCATGATCATTTTTTTTTTTTTTTTCGCG [GCGCT]
0.93
TTTTTTGCTGAGCATGAGCATTTTTTTTTTTTTTTACTCT [TCTCA]
0.421

background-corrected fluorescence for TTTTTTGCTGATGCGCATCATTTTTTTTTTTTTTTACATG [GTACA] is 0.519

background-corrected fluorescence for TTTTTGCAGCAGCAGCATCATTTTTTTTTTTTTTTTTTTG [GTTTT] is 0.461

background-corrected fluorescence for TTTTTTGCTGCGCATGCTGATTTTTTTTTTTTTTTAATAC [CATAA] is 0.453

background-corrected fluorescence for TTTTTTCATGATGAGCATCATTTTTTTTTTTTTTTGCCTG [GTCCG] is 0.481

background-corrected fluorescence for TTTTTTCAGCATGATGCGCATTTTTTTTTTTTTTTGTCAT [TACTG] is 0.529

background-corrected fluorescence for TTTTTTGCTGATGAGCATGCTTTTTTTTTTTTTTTACCTA [ATCCA] is 0.449

* * *

assayMethodText: background-corrected fluorescence of 3'-dye-labeled ssDNA relative to brightest sequence (3'-GCGCG) (fraction); higher = brighter dye fluorescence (less quenching)
condition: dye: Cy5 (3' terminal)
Let's look at some sequences and their measured background-corrected fluorescence.

background-corrected fluorescence for TTTTTTGCGCATGATCATCATTTTTTTTTTTTTTTATCGG [GGCTA] is 0.504

background-corrected fluorescence for TTTTTTGCTGCGCATCATCATTTTTTTTTTTTTTTAATGG [GGTAA] is 0.51

background-corrected fluorescence for TTTTTTCATGCTGAGCATCATTTTTTTTTTTTTTTGACTG [GTCAG] is 0.39

* * *

Let's look at some sequences and their measured background-corrected fluorescence.
assayMethodText: background-corrected fluorescence of 3'-dye-labeled ssDNA relative to brightest sequence (3'-GCGCG) (fraction); higher = brighter dye fluorescence (less quenching)
condition: dye: Cy3 (3' terminal)
Give a plain numeric answer without units written out.

Reference set (5 entries):
TTTTTGCAGCATGATGATCATTTTTTTTTTTTTTTTTCCG [GCCTT]
0.488
TTTTTGCATGCTCATGCGCATTTTTTTTTTTTTTTTAGAT
0.569
TTTTTGCATCATCATCATGCTTTTTTTTTTTTTTTTGGGA [AGGGT]
0.757
TTTTTTCAGCATGATCATGATTTTTTTTTTTTTTTGTCGC [CGCTG]
0.556
TTTTTTGATGCTGATGCTCATTTTTTTTTTTTTTTCACAG [GACAC]
0.481

background-corrected fluorescence for TTTTTTGATGATGAGCATGATTTTTTTTTTTTTTTCCCTC [CTCCC] is 0.346

background-corrected fluorescence for TTTTTTCATCAGCATGATCATTTTTTTTTTTTTTTGGTCG [GCTGG] is 0.526

background-corrected fluorescence for TTTTTTGATCAGCATGCTGATTTTTTTTTTTTTTTCGTAC is 0.49

* * *

assayMethodText: background-corrected fluorescence of 3'-dye-labeled ssDNA relative to brightest sequence (3'-GCGCG) (fraction); higher = brighter dye fluorescence (less quenching)
condition: dye: Cy3 (3' terminal)
measurementKind: background-corrected fluorescence
Give a plain numeric answer without units written out.

TTTTTTGCTGATCATGATGATTTTTTTTTTTTTTTACGCC [CCGCA]
0.467

background-corrected fluorescence for TTTTTTGAGCAGCAGCATGCTTTTTTTTTTTTTTTCTTTA [ATTTC] is 0.48

background-corrected fluorescence for TTTTTTGCGCATGCTCAGCATTTTTTTTTTTTTTTATAGT [TGATA] is 0.587

background-corrected fluorescence for TTTTTGCATCAGCATGCTGATTTTTTTTTTTTTTTTGTAC [CATGT] is 0.471

background-corrected fluorescence for TTTTTTGAGCATGCTGATCATTTTTTTTTTTTTTTCTACG [GCATC] is 0.565

background-corrected fluorescence for TTTTTGCAGCATGAGCATGCTTTTTTTTTTTTTTTTTCTA [ATCTT] is 0.467

background-corrected fluorescence for TTTTTTGCTGCTCATGCTGATTTTTTTTTTTTTTTAAGAC [CAGAA] is 0.485

background-corrected fluorescence for TTTTTTCATGCGCATGATCATTTTTTTTTTTTTTTGATCG [GCTAG] is 0.545

background-corrected fluorescence for TTTTTGCAGCATGAGCAGCATTTTTTTTTTTTTTTTTCTT is 0.481

background-corrected fluorescence for TTTTTTCATGCTCAGCATCATTTTTTTTTTTTTTTGAGTG [GTGAG] is 0.578

background-corrected fluorescence for TTTTTGCATCATCATCATGATTTTTTTTTTTTTTTTGGGC [CGGGT] is 0.591

background-corrected fluorescence for TTTTTTGAGCAGCATCAGCATTTTTTTTTTTTTTTCTTGT [TGTTC] is 0.604

background-corrected fluorescence for TTTTTTGAGCATGATGATGATTTTTTTTTTTTTTTCTCCC [CCCTC] is 0.377

background-corrected fluorescence for TTTTTGCATGCTGATGCGCATTTTTTTTTTTTTTTTACAT is 0.489

background-corrected fluorescence for TTTTTTGCTGATGCTGCTGATTTTTTTTTTTTTTTACAAC [CAACA] is 0.448

background-corrected fluorescence for TTTTTTCATGATCAGCAGCATTTTTTTTTTTTTTTGCGTT is 0.571
